system_name: Pneumocystis carinii dihydrofolate reductase (Pneumocystis carinii)
Sequence (P16184 whole entry): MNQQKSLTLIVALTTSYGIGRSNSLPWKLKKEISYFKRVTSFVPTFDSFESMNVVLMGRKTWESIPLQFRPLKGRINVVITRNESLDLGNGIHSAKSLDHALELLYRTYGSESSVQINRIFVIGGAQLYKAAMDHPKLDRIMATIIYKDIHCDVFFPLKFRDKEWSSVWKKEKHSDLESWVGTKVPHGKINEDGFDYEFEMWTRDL
assay_text: biochemical
Format: biochemical
stated_conditions: mean of replicate assays; read-out: DHFR inhibition (IC50 μM) P.carinii
readout_type: IC50

INSERT INTO assay_data (input_smiles, result) VALUES
  ('Nc1nc(N)c2nc(CN3c4ccccc4CCc4ccccc43)cnc2n1', '1.4 µM'),
  ('Nc1nc(N)c2nc(CN3c4ccccc4C=Cc4ccccc43)cnc2n1', '0.21 µM');

----------
system_name: Toxoplasma gondii dihydrofolate reductase (Toxoplasma gondii)
Sequence (Q07422 whole entry): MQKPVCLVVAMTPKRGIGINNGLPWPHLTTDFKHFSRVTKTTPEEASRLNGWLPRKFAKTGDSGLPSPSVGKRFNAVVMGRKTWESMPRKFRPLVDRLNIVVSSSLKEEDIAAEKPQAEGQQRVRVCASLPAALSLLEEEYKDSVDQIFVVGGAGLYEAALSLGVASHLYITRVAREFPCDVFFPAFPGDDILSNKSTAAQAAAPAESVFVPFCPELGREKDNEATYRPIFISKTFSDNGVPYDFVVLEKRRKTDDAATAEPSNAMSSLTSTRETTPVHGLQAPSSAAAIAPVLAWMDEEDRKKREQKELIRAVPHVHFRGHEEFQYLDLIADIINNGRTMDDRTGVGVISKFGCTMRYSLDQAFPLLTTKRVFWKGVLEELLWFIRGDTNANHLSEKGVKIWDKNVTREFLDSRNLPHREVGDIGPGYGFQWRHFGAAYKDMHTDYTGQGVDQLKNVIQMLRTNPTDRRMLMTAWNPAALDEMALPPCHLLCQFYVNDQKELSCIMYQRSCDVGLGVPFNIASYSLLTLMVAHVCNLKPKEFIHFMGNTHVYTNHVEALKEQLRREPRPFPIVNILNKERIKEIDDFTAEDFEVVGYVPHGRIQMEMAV
assay_text: biochemical
stated_conditions: DHFR inhibition (IC50 μM) T.gondii, expt 3 (replicate assays on different days)
readout_type: IC50 (µM)

INSERT INTO measurements (input_smiles, system_name, result) VALUES
  ('Nc1nc(N)c2nc(CN3c4ccccc4C=Cc4ccccc43)cnc2n1', 'Toxoplasma gondii dihydrofolate reductase (Toxoplasma gondii)', 0.084);
